Hey, just so you know, these numbers are from patent US20150274820A1.

koff overview
system.tested: recombinant rat VEGF164 (rat) (UniProt P16612)
procedure.summary: Biacore SPR, VEGF immobilized, pH 5
The response must be a number in s⁻¹ with no trailing unit.

Please review the following examples before continuing.
{"columns": ["binder", "value.kind", "unit.text", "data.value"],
 "data": [
  ["578minmax (scFv, also called ESBA903; 903) scFv: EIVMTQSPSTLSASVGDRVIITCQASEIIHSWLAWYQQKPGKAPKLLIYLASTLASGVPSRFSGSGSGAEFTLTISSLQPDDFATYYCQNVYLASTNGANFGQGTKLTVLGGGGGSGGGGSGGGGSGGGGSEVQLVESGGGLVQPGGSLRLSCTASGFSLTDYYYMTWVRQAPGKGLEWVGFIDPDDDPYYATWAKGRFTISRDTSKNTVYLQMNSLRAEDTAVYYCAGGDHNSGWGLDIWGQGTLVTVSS", "koff", "s⁻¹", 0.000641],
  ["511-min (scFv, VL and VH tied by name; also called Protein Nr) scFv: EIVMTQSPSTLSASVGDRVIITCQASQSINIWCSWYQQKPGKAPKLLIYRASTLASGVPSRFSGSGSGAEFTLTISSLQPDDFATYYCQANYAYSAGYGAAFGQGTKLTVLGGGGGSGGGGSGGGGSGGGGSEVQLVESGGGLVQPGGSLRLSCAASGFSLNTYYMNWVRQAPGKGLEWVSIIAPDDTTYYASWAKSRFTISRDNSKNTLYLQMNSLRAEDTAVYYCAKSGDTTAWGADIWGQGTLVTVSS", "koff", "s⁻¹", 0.00112]
]}

Next binder, koff to be filled in.
Task: Recorded koff of 511-max (scFv, also called ESBA802) scFv: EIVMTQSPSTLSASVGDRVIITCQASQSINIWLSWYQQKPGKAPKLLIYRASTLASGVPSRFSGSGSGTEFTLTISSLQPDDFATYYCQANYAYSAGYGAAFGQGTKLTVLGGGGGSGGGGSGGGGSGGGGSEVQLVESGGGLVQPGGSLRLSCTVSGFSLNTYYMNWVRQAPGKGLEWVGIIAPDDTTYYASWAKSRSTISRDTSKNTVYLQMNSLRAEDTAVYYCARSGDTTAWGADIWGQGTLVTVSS , please.
Output: 6.63e-05
